Measured values drawn from ChEMBL document CHEMBL5346874 for this set.

# System: Plasmodium berghei
# ASSAY PROCEDURE: Antimalarial activity against hepatic stage of Plasmodium berghei sporozoites GFP ANKA incubated for 3 hrs followed by replacement with fresh media for every 24 hrs by immunostaining analysis
# Assay type: functional, organism-based
PROPERTY LABEL: EC50
Kindly write the number and append the unit.

Ask | Reported EC50 for CCN(CC)CCCNc1nc(NC(C)(C)C)nc2cc(-c3ccc(C)cc3)sc12.Cl.Cl : what is it?
Reply | 12.3 µM

Ask | Next: Cc1ccc(-c2cc3nc(NC(C)(C)C)nc(NCCN(C)C)c3s2)cc1.Cl.Cl
Reply | 14.2 µM

Ask | Also CCN(CC)CCNc1nc(NC(C)(C)C)nc2cc(-c3ccc(C)cc3)sc12.Cl.Cl , if possible.
Reply | 14.4 µM

Ask | Proceed to Cc1ccc(-c2cc3nc(NC(C)(C)C)nc(NCCCN(C)C)c3s2)cc1.Cl.Cl
Reply | 14.4 µM

---

# Test system: Hepatocyte
# ASSAY PROCEDURE: Cytotoxicity against cynomolgus monkey Primary hepatocyte assessed as cell viability
# Type: toxicity, cell-based, Macaca fascicularis
# MEASUREMENT PARAMETERS: hepatocytes
PROPERTY LABEL: CC50 (µM)
A number alone suffices; assume µM.

Ask | Query (molecule): Cc1ccc(-c2cc3nc(NC(C)(C)C)nc(NCCN(C)C)c3s2)cc1 ; field requested: CC50
Reply | 14

Ask | And the next one, Cc1ccc(-c2cc3nc(NC(C)(C)C)nc(NCCN(C)C)c3s2)cc1.Cl.Cl ?
Reply | 32.5

Ask | Proceed to Cc1ccc(-c2cc3nc(NC(C)(C)C)nc(NCCCN(C)C)c3s2)cc1.Cl.Cl
Reply | 35.5

Ask | // repeat for CCN(CC)CCCNc1nc(NC(C)(C)C)nc2cc(-c3ccc(C)cc3)sc12.Cl.Cl and report
Reply | 27.6

Ask | Consider next the molecule CCN(CC)CCNc1nc(NC(C)(C)C)nc2cc(-c3ccc(C)cc3)sc12.Cl.Cl in the same way.
Reply | 59.1

---

# ASSAY PROCEDURE: Cytotoxicity against cynomolgus monkey Primary hepatocyte assessed as cell viability
# Assay type: toxicity, cell-based, Macaca fascicularis
# MEASUREMENT PARAMETERS: primary hepatocytes
PROPERTY LABEL: CC50 (µM)
Only the number, expressed in µM, is required.

Ask | For Cc1ccc(-c2cc3nc(NC(C)(C)C)nc(N4CCC(N)CC4)c3s2)cc1 , what is its reported CC50?
Reply | 31.6

Ask | Cool, now Cc1ccc(-c2cc3nc(NC(C)(C)C)nc(N4CCC(NCc5ccc([N+](=O)[O-])cc5)CC4)c3s2)cc1
Reply | 15.8

Ask | How about CCN(CC)CCNc1nc(NC(C)(C)C)nc2cc(-c3ccc(C)cc3)sc12 ?
Reply | 32.6

Ask | Thanks! And COc1ccc(CNC2CCN(c3nc(NC(C)(C)C)nc4cc(-c5ccc(C)cc5)sc34)CC2)cc1 ?
Reply | 28.6

---

# ASSAY PROCEDURE: Chromatographic hydrophobicity index, log D of the compound at pH 7.4 by HPLC analysis
# Type: physicochemical
Give chromatographic logD for every item shown.
// keep it numeric: no unit symbol after the value

Ask | Record request: chromatographic logD value, item Cc1ccc(-c2cc3nc(NC(C)(C)C)[nH]c(=O)c3s2)cc1.Cl
Reply | 4.1

Ask | Repeat for the following molecule: CCN(CC)CCCNc1nc(NC(C)(C)C)nc2cc(-c3ccc(C)cc3)sc12.Cl.Cl
Reply | 4.23

Ask | Further, for Cc1ccc(-c2cc3nc(NC(C)(C)C)nc(NCCN(C)C)c3s2)cc1.Cl.Cl ?
Reply | 4.5

Ask | What do you have for CCN(CC)CCNc1nc(NC(C)(C)C)nc2cc(-c3ccc(C)cc3)sc12.Cl.Cl ?
Reply | 4.81

Ask | Also need Cc1ccc(-c2cc3nc(NC(C)(C)C)nc(NCCCN(C)C)c3s2)cc1.Cl.Cl , thanks.
Reply | 4.29
